tested on: rodent lifetime carcinogenesis bioassay, tumor incidence TD50; experiment: carcinogenic potency in animals, long-term in vivo studies, CPDB compilation (AID 1745844); conditions: mouse; strain Swiss albino; females; in drinking water; site: lung; lesion: several types; types named in the paper; dosed 82 weeks; study length 82 weeks
readout: TD50

Lab note: measured TD50 of CCNN was 5.22 mg/kg/day

---

system: rodent lifetime carcinogenesis bioassay, tumor incidence TD50; experiment: carcinogenic potency in animals, long-term in vivo studies, CPDB compilation (AID 1745844); settings: rat; strain Fischer 344; males; inhaled; site: liver; lesion: hepatocellular carcinoma; dosed 104 weeks; study length 104 weeks
Activity calls are given as the source filed them. How the calls were made is not given here.
readout: TD50

GET /values?item= CC(Cl)(Cl)Cl &system= rodent lifetime carcinogenesis bioassay, tumor incidence TD50 returns TD50: 2070 mg/kg/day (inactive)
